Cited source: the RNAGym collection of RNA variant scans (doi:10.1038/s41586-018-0170-7)

B1: tRNA (parent)
chain: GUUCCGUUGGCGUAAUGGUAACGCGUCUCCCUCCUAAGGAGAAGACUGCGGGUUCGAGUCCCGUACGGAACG

Variants of: B1
experimentSummary: yeast fitness, log relative to wild type (ln ratio); higher = fitter; tRNA-Arg(CCU), competitive growth, 37 C, 1 M NaCl
readoutLabel: yeast fitness (ln)

Inquiry: # get_value(readout='yeast fitness (ln)', item= U2C A43C C46U C66A A69G A70G C71U )
Reply text: -0.097

Inquiry: # get_value(readout='yeast fitness (ln)', item= G6U C66U A70U )
Reply text: -0.122

Inquiry: # get_value(readout='yeast fitness (ln)', item= G6U C27U A43C C46U C66A A70G )
Reply text: -0.123

Inquiry: # get_value(readout='yeast fitness (ln)', item= G1A U2G G6U C27U C46U C66U A70U C71U )
Reply text: -0.334

Inquiry: # get_value(readout='yeast fitness (ln)', item= G1A U2G G6U C27U C46U C66U A70U )
Reply text: -0.236

Inquiry: # get_value(readout='yeast fitness (ln)', item= U2C G6A C27U C46U C66U A70G )
Reply text: -0.0278

Inquiry: # get_value(readout='yeast fitness (ln)', item= G1A G6A C27U C46U A69G A70U C71U )
Reply text: -0.36

Inquiry: # get_value(readout='yeast fitness (ln)', item= C66U A69G )
Reply text: -0.168

Inquiry: # get_value(readout='yeast fitness (ln)', item= G6U C27U C46U )
Reply text: -0.174

Inquiry: # get_value(readout='yeast fitness (ln)', item= G1A U2G G6U C46U C66U A70U )
Reply text: -0.184

Inquiry: # get_value(readout='yeast fitness (ln)', item= U2G G6A C27U A43C A70U )
Reply text: -0.119

Inquiry: # get_value(readout='yeast fitness (ln)', item= U2C G6A A43C C46U C66U A70G C71U )
Reply text: -0.0112

Inquiry: # get_value(readout='yeast fitness (ln)', item= G1A U2G G6U A43C C66U A69G A70U )
Reply text: -0.255

Inquiry: # get_value(readout='yeast fitness (ln)', item= G1A U2G A43C C66U A69G A70G C71U )
Reply text: -0.457

Inquiry: # get_value(readout='yeast fitness (ln)', item= U2G C27U A70G C71U )
Reply text: -0.178

Inquiry: # get_value(readout='yeast fitness (ln)', item= C27U C46U C66U C71U )
Reply text: -0.376

Inquiry: # get_value(readout='yeast fitness (ln)', item= G6U A43C C66A A69G A70U C71U )
Reply text: -0.39

Inquiry: # get_value(readout='yeast fitness (ln)', item= G1A U2G C27U A43C C66U A70G C71U )
Reply text: -0.383

Inquiry: # get_value(readout='yeast fitness (ln)', item= G1A G6U A43C C46U C71U )
Reply text: -0.174

Inquiry: # get_value(readout='yeast fitness (ln)', item= U2G G6U C27U C66U C71U )
Reply text: -0.31

Inquiry: # get_value(readout='yeast fitness (ln)', item= C46U C66A A70U C71U )
Reply text: -0.022

Inquiry: # get_value(readout='yeast fitness (ln)', item= G1A G6U C27U A43C C66A A70U C71U )
Reply text: -0.608

Inquiry: # get_value(readout='yeast fitness (ln)', item= G6U C66A A69G A70U C71U )
Reply text: -0.408

Inquiry: # get_value(readout='yeast fitness (ln)', item= C27U A43C C66U C71U )
Reply text: -0.269

Inquiry: # get_value(readout='yeast fitness (ln)', item= U2G G6A C66A A69G A70G C71U )
Reply text: -0.213

Inquiry: # get_value(readout='yeast fitness (ln)', item= G1A G6A A43C C66U A70G C71U )
Reply text: -0.377

Inquiry: # get_value(readout='yeast fitness (ln)', item= G6U A43C A70U C71U )
Reply text: -0.287

Inquiry: # get_value(readout='yeast fitness (ln)', item= G6A A43C C46U C66A )
Reply text: -0.0495

Inquiry: # get_value(readout='yeast fitness (ln)', item= G1A C27U A43C C66U A69G A70G )
Reply text: -0.295

Inquiry: # get_value(readout='yeast fitness (ln)', item= G1A A69G A70G C71U )
Reply text: -0.0385

Inquiry: # get_value(readout='yeast fitness (ln)', item= C46U C66A A69G A70G )
Reply text: -0.0653

Inquiry: # get_value(readout='yeast fitness (ln)', item= U2G C46U A70G C71U )
Reply text: -0.284

Inquiry: # get_value(readout='yeast fitness (ln)', item= A43C C46U C66A A69G A70G C71U )
Reply text: -0.103

Inquiry: # get_value(readout='yeast fitness (ln)', item= U2G C46U C71U )
Reply text: -0.0759

Inquiry: # get_value(readout='yeast fitness (ln)', item= U2G G6U A43C C66A A70U C71U )
Reply text: -0.43

Inquiry: # get_value(readout='yeast fitness (ln)', item= U2G G6U C27U A43C A69G A70U )
Reply text: -0.315

Inquiry: # get_value(readout='yeast fitness (ln)', item= U2G C27U A43C C46U C66U A69G A70U C71U )
Reply text: -0.395

Inquiry: # get_value(readout='yeast fitness (ln)', item= G1A U2C G6U A43C C46U C66U A70G C71U )
Reply text: -0.267

Inquiry: # get_value(readout='yeast fitness (ln)', item= G6U C27U C46U A70G C71U )
Reply text: -0.321

Inquiry: # get_value(readout='yeast fitness (ln)', item= G1A C27U C71U )
Reply text: -0.0389
